Please provide measured IC50 for the entries that follow.
assayed.system: human MNK (N-acetylmannosamine kinase) (Homo sapiens, UniProt Q9Y223)
Sequence (Q9Y223 406-722 limits assumed): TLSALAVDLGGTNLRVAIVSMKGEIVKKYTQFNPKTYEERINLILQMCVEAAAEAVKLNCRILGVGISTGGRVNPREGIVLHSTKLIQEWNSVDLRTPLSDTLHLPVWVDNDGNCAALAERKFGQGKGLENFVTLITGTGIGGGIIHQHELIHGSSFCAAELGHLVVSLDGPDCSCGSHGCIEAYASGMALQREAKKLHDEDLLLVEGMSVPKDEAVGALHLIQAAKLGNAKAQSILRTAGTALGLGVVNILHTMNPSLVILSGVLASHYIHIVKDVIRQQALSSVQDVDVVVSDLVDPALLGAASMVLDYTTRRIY
The answer is to be given in µM; state only the numeric part.

query: Answer with the recorded IC50 for the compound listed here: CC(=O)N[C@@H]1C(O)O[C@H](C[Se]C[C@H]2OC(O)[C@@H](NC(C)=O)[C@@H](O)[C@@H]2O)[C@@H](O)[C@@H]1O (stereo partly shown) [Compound 16b]
result: 3000

query: Please report IC50 for the following compound: CCCC[Se]C[C@H]1OC(O)[C@@H](NC(C)=O)[C@@H](O)[C@@H]1O (stereo partly shown) [Compound 18b]
result: 1900

query: For CC(=O)N[C@@H]1C(O)O[C@H](C[Se][Se]C[C@H]2OC(O)[C@@H](NC(C)=O)[C@@H](O)[C@@H]2O)[C@@H](O)[C@@H]1O (stereo partly shown) [Compound 14b] , write its IC50.
result: 8.5
